- targetOrSystem: human mu-opioid peptide (hMOP) receptor (Homo sapiens (Human), UniProt P35372)
- Sequence (P35372 whole entry): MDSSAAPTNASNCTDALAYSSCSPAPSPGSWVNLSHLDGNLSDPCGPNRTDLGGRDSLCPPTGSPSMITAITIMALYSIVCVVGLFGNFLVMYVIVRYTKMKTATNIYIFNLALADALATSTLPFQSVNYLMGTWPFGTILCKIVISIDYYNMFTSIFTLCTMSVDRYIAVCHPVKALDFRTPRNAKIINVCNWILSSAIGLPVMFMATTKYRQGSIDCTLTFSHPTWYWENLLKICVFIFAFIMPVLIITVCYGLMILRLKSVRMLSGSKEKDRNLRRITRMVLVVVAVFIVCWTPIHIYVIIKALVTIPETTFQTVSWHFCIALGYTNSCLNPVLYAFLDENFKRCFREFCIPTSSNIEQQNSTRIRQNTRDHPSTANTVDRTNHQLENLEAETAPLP

{"mol": "CN(C)[C@]1(c2ccccc2)CC[C@]2(CC1)CN(CC(C)(C)N1C(=O)CCC1=O)C(=O)N2CC1CC1", "unitOfMeasurement": "µM", "Ki": 2.47}
